System: SK-MEL-28 melanoma
ASSAY OVERVIEW: NCI tumour cell line growth inhibition, 48 h
Measured TGI accompanies every entry in the list below.
Write the value in µM as a bare number.

These recorded examples may help you get a feel for the data.
• COc1ccc(C2c3c(-c4ccccc4)nn(-c4ccccc4)c3Oc3ncn(N)c(=N)c32)cc1OC (stereo not given) = 4.29
• Cc1[nH]ccc2cc3nc4ccccc4c3cc12 = 23.9
• Cn1c2cc(Cl)ccc2c2ccc3c(c21)C(=O)C=CC3=O = 63.5

Turning now to a further record.
Query for SK-MEL-28 melanoma: what TGI does the record show for COc1cccc2cc(N(C)c3nc(C)nc4ccsc34)ccc12 ?
20

----------
Tested on: TK-10 renal
ASSAY OVERVIEW: NCI tumour cell line growth inhibition, 48 h; in the data active means GI50 below about 0.43 µM; inactive means the rest
Answer with one of the outcomes given here: 1 (yes) (active), 0 (no) (inactive)

• O=C1C(Nc2cccc(O)c2)=C(Sc2ccc(Cl)cc2)C(=O)N1Cc1ccccc1 = 0 (no)
• COc1ccc(-c2cc3nccn3c(Nc3ncccc3C(N)=O)n2)cc1OC = 1 (yes)
• CCC[CH2][Sn]1([CH2]CCC)[O]CC([CH2][Sn]([c]2ccccc2)([c]2ccccc2)[c]2ccccc2)[O]1 (centres undefined) = 0 (no)
• Cc1[nH]ccc2cc3nc4ccccc4c3cc12 = 0 (no)

Could you please tell me the result logged for CC(C)(C)n1cc(-c2ccnc(NCCCNS(=O)(=O)c3ccc(Cl)cc3)c2)c(-c2cccc(O)c2)n1 in this assay?
0 (no)

Give the logged outcome of this assay for the following compound: O=C(Nn1c2c(sc1=NC1CC1)C(=O)c1ccccc1C2=O)c1cc2ccc1CCc1ccc(cc1)CC2
0 (no)

Look up the recorded call for Cc1cc(S(=O)(=O)Nc2nc3ccsc3c(=O)n2Cc2ccccc2)c(S)cc1Cl in this test.
0 (no)

Per the records of this test, what outcome belongs to CN(C)CCN1C(=O)c2cccc3c(-c4ccc5ncn(C6CCCCC6)c5c4)ccc(c23)C1=O ?
0 (no)

Field: outcome | Entry: Cc1cc(Cl)ccc1Nc1nc(C(F)(F)F)ccc1C(=O)N/N=C/c1ccc(N(C)C)cc1
0 (no)

----------
System: SNB-75 CNS
ASSAY OVERVIEW: NCI tumour cell line growth inhibition, 48 h
ENDPOINT NAME: TGI

Field: TGI (SNB-75 CNS). Entry: CC(=O)[CH-]C(=O)c1ccccc1.CC(=O)[CH-]C(=O)c1ccccc1.CC12CC3(C)CC(C)(C1)CC([O-])(C2)C3.CC[O-].[Ti+4]
29.4 µM

Lookup: TGI / SNB-75 CNS / CN(C)NC(=S)NC12CC3CC(CC(C3)C1)C2
> 100 µM

Return TGI measured with SNB-75 CNS given this molecule: CC1(C)CC(=O)C2=C(C1)N(c1ccccc1)C1(O)C=CC(=O)C3=C(O)c4ccccc4C(=O)C321 (stereo not given)
48.6 µM

Please provide the recorded TGI for CC1(C)N=C(/C(C#N)=[N+](/[O-])C(=O)c2ccccc2)C(C)(C)N1O , tested on SNB-75 CNS.
> 100 µM

Notebook: pull reported TGI for SNB-75 CNS, entry CC1=NN(C(=O)c2ccccc2)C(=O)C1N=Nc1ccccc1C(=O)O (stereo not given)
> 20.7 µM

For the record CCOC(=O)C1CCn2c(nc3c(=O)n(C)c(=O)n(C)c32)S1 (stereo not given) , what value of TGI is listed for SNB-75 CNS?
> 100 µM

Test system SNB-75 CNS; read-out TGI; what value for O=C1CSC(c2c(O)ccc3ccccc23)N1n1c(=S)[nH]nc(/C=C/c2c(O)ccc3ccccc23)c1=O (stereo not given) ?
11.4 µM

State its TGI on SNB-75 CNS: O/N=C1/C(=C/c2ccccc2)CCCC1C(NO)c1ccccc1 (stereo not given)
> 100 µM

Field: TGI (SNB-75 CNS). Entry: NCCCn1c2c(c3ccc([N+](=O)[O-])cc3c1=O)C(=O)c1cc(Cl)ccc1-2
1.2 µM

SNB-75 CNS / TGI / Clc1ccc2c(NCCN3CCN(c4ccnc(N5CCCC5)n4)CC3)ccnc2c1 : value?
7.62 µM

----------
Listed here: items and their measured TGI.
System: ACHN renal
ASSAY OVERVIEW: NCI tumour cell line growth inhibition, 48 h

Guide cases for TGI, answers given:
* CN(C)CCN1C(=O)c2cccc3c(-c4ccc5ncn(C6CCCCC6)c5c4)ccc(c23)C1=O | 2.36 µM
* CO[C@H]1/C=C/C[C@H](C)[C@@H](C)S(=O)(=O)NC(=O)c2ccc3c(c2)N(C[C@@H]2CC[C@H]21)C[C@@]1(CCCc2cc(Cl)ccc21)CO3 | 11.8 µM
* CCCCCCCCCCOC1C(C(C)OCCCN(C)C)OC2OC3(CCCCC3)OC21 (centres undefined) | 31.4 µM
* S=C1NC2=C(COC/C2=C\c2ccccc2Cl)C(c2ccccc2Cl)N1 (centres undefined) | > 100 µM
* O=C(Nc1ccc(Cl)cc1)c1cc(S(=O)(=O)NC2=NC(c3ccccc3)c3cc(Cl)ccc3N2)c(SSc2cc(Cl)c(C(=O)Nc3ccc(Cl)cc3)cc2S(=O)(=O)NC2=NC(c3ccccc3)c3cc(Cl)ccc3N2)cc1Cl (centres undefined) | > 100 µM
* Cc1cc(C)c(N)c(C)c1N | > 100 µM
* O=C(Cc1ccccc1)NN1C(=O)C(Cl)C1c1ccccc1 (centres undefined) | > 100 µM
* c1cc(-c2cnn3nc(N4CCOCC4)ccc23)nc(NC2CC2)n1 | > 25 µM

Name the recorded TGI for CCC(c1nc2ccccc2c(=O)n1NC(=O)C(C)(C)C)C1(O)CCCCC1 (centres undefined) .
> 100 µM

Fill in the blank: the reported TGI of CCNC(=O)CCCCC(=O)c1c(C)[nH]c(/C=C2\N=C(c3ccc[nH]3)C=C2OC)c1C is ____.
3.34 µM

Can you look up the measured TGI of O=C1/C(=C/c2ccc(C(F)(F)F)cc2)COc2ccc(O)cc21 for me?
3.53 µM

Data request, read-out TGI, for COC(=O)Nc1nc2ccc(NS(=O)(=O)c3ccc(F)cc3)cc2[nH]1
> 100 µM

----------
Here's what we have: GI50 numbers for U251 CNS.

Solved cases (4 shown):
• Cc1cc(S(=O)(=O)Nc2nc3ccsc3c(=O)n2Cc2ccccc2)c(S)cc1Cl = 35.9 µM
• C#CCOc1cccc(Nc2ncnc3c2ncn3C2CCN(C(=O)CCl)C2)c1 (stereo not given) = 18.1 µM
• O=C1/C(=C/c2ccc(C(F)(F)F)cc2)COc2ccc(O)cc21 = 1.66 µM
• c1cc(-c2cnn3nc(N4CCOCC4)ccc23)nc(NC2CC2)n1 = 6.97 µM

Now look at this one.
State its GI50 on U251 CNS: CC1(C)CC(O)CCCCCCOc2c(CN)cccc2NC(=O)c2nc(cnc2N)-c2ccc(cc2)S1(=O)=O (stereo not given)
0.382 µM

----------
Listed here: items and their measured TGI.
Test system: EKVX NSCLC
ASSAY OVERVIEW: NCI tumour cell line growth inhibition, 48 h
# value in µM; strip the unit string

Study these solved cases before continuing.
* OCCCCC#Cc1ccccc1C#Cc1cccs1 | 23.9
* CC(=O)Oc1cc(OC(C)=O)c2cc3c(cc2c1OC(C)=O)C(=O)C1(CCCC1)C3=O | 38
* CCC(C)N1CN(c2ccccc2)C2(CCN(CCCC(=O)c3ccc(F)cc3)CC2)C1=O (stereo not given) | 36.4

Turning now to a further molecule:
// map O=C1/C(=C/c2ccc(C(F)(F)F)cc2)COc2ccc(O)cc21 to recorded TGI (system: EKVX NSCLC)
22.5

----------
Test system: HCC-2998 colon
ASSAY OVERVIEW: NCI tumour cell line growth inhibition, 48 h; in the data active = GI50 below about 0.43 µM; inactive = the rest
Your reply should match one of these outcome classes. yes (1) (active), no (0) (inactive)

Illustrative cases are given below, each with its answer.
- COc1cc(C(=O)/C=C/c2c(-c3cccs3)nc3ccccn23)cc(OC)c1OC: no (0)
- CC(C)[C@H](O)C(=O)N[C@H]1Cc2ccc3c(c2)[C@]24C5=C(N=C(O5)[C@H](C(C)C)NC1=O)c1nc(Cl)c(o1)-c1c(Cl)[nH]c5cccc(c15)-c1cccc2c1N[C@H]4O3: yes (1)
- CCN1CCN(c2cc(C)nc(NCc3cc(Nc4ccnc5cc(Cl)ccc45)ccc3F)n2)CC1: no (0)

In the following, a different molecule is considered.
I'd appreciate the recorded outcome for O=C(/C=C\c1ccc(OCCCCCC[P+](c2ccccc2)(c2ccccc2)c2ccccc2)cc1)c1ccc2c(c1)OCCO2 from this test.
no (0)

----------
Overview of reported TGI across a group of compounds:
System: HOP-62 NSCLC
ASSAY OVERVIEW: NCI tumour cell line growth inhibition, 48 h
Lab book: enter the figure in µM, no units written.

* COc1ccc(Cn2cc3c(c2-c2ccccc2)CCc2cncnc2-3)cc1 | 31.3

We now examine a further compound.
Item under review: CCN(CC)CCNc1ccc2nnn3c4ccc(OC(C)=O)cc4c(=O)c1c23 . Reported TGI?
12.5
